# Test system: S. enterica typhimurium WT;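 further: active when median AUC fell below 0.1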
# test-details: growth AUC normalised to DMSO control (median) (fraction of control); higher = less growth inhibition, active = hit call of the paper
# cond: 20 µM
Counter-ions that a name gives are not always drawn.
experimental-endpoint: growth AUC normalised to DMSO control

O=C(O)CNC(=O)C(CS)Cc1ccccc1 (stereo not given)    0.997 (inactive)
CCCCNC(=N)NC(=N)N    1.02 (inactive)
CC(=O)Oc1c(C)cccc1C(=O)O    0.998 (inactive)
CCN1CCN(C(=O)N[C@@H](C(=O)N[C@@H]2C(=O)N3C(C(=O)O)=C(CSc4nnnn4C)CS[C@H]23)c2ccc(O)cc2)C(=O)C1=O [Cefoperazone dihydrate]    0.144 (inactive)

// growth AUC normalised to DMSO control lookup, key: `CC(=O)[C@H]1CC[C@H]2[C@@H]3CCC4=CC(=O)CC[C@]4(C)[C@H]3CC[C@]12C`
1.02 (inactive)

Look at this molecule and give its reported growth AUC normalised to DMSO control. CCc1ccc(C(=O)C(C)CN2CCCCC2)cc1 (stereo not given) [Eperisone Hydrochloride]
1 (inactive)

Sample CCOCCn1c(N2CCCN(C)CC2)nc2ccccc21 [Emedastine difumarate] — what was its growth AUC normalised to DMSO control?
1 (inactive)

====

# Test system: S. enterica typhimurium WT;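 further: active when median AUC fell below 0.1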
# test-details: growth AUC normalised to DMSO control (median) (fraction of control); higher = less growth inhibition, active = hit call of the paper
# cond: 20 µM
Structures can show the parent of a compound that is named as a salt.
Items are presented alongside their recorded growth AUC normalised to DMSO control.

Would you please look over these solved cases?
CN[C@@H]1[C@@H](O[C@H]2O[C@H](CO)[C@@H](N)[C@H](O)[C@H]2O)OC2C[C@@H](N)[C@@H](O[C@H]3[C@H](O)[C@@H](O)[C@H](N)C[C@@H]3N)OC2[C@@H]1O (some centres undefined) [Apramycin]    1.01 (inactive)
Nc1c2ccccc2nc2ccccc12 [Aminacrine]    0.902 (inactive)
CCn1cc(C(=O)O)c(=O)c2cnc(N3CCNCC3)nc21 [Pipemidic acid]    0.107 (inactive)
COc1cc(C(=O)NS(=O)(=O)c2ccccc2C)ccc1Cc1cn(C)c2ccc(NC(=O)OC3CCCC3)cc12 [Zafirlukast]    1.01 (inactive)
OC[C@H]1O[C@H](O[C@H]2O[C@H](CO)[C@@H](O)[C@H](O)[C@H]2O)[C@H](O)[C@@H](O)[C@@H]1O [Trehalose dihydrate]    1.01 (inactive)
Cc1ccc(Nc2c(F)cccc2Cl)c(CC(=O)O)c1 [Lumiracoxib]    1 (inactive)
Cc1cccc(C)c1NC(=O)C(C)N (centres undefined) [Tocainide hydrochloride]    0.999 (inactive)
CNCCCC12CCC(c3ccccc31)c1ccccc12 [Maprotiline hydrochloride]    0.997 (inactive)
Cn1c(=O)cc(N2CCC[C@@H](N)C2)n(Cc2ccccc2C#N)c1=O [Alogliptin benzoate]    0.991 (inactive)
C=CC[N@@+]12CC[C@@]34c5ccccc5N5/C=C6/[C@H]7C[C@H]8[C@@]9(CC[N@@+]8(CC=C)C/C7=C/CO)c7ccccc7N(/C=C(/[C@@H](C[C@@H]31)/C(=C\CO)C2)[C@H]54)[C@@H]69 [Alcuronium chloride]    1.01 (inactive)

What measured growth AUC normalised to DMSO control goes with CC(=O)CC(c1ccc([N+](=O)[O-])cc1)c1c(O)c2ccccc2oc1=O (centres undefined) [Acenocoumarol] ?
0.999 (inactive)

Form field: reported growth AUC normalised to DMSO control of CCC(=O)O[C@]1(C(=O)SCF)[C@H](C)C[C@H]2[C@@H]3C[C@H](F)C4=CC(=O)C=C[C@]4(C)[C@@]3(F)[C@@H](O)C[C@@]21C [Fluticasone propionate]
0.993 (inactive)

Quick one: growth AUC normalised to DMSO control for CCN(CC)CCOC(=O)c1ccc(N)cc1 [Procaine hydrochloride] ?
0.992 (inactive)

growth AUC normalised to DMSO control lookup needed for Nc1cccc2c1C(=O)N(C1CCC(=O)NC1=O)C2=O (centres undefined) [Pomalidomide] , thanks.
1.02 (inactive)

What growth AUC normalised to DMSO control value was documented for this compound, Nc1nc(F)nc2c1ncn2[C@@H]1O[C@H](CO)[C@@H](O)[C@@H]1O [Fludarabine] ?
0.994 (inactive)

Using the record for CN(C)CCOC(C)(c1ccccc1)c1ccccn1 (centres undefined) [Doxylamine succinate] , report its growth AUC normalised to DMSO control.
0.986 (inactive)

What does the record list as growth AUC normalised to DMSO control for C[C@@H]1C[C@H]2[C@@H]3C[C@H](F)C4=CC(=O)C=C[C@]4(C)[C@@]3(F)[C@@H](O)C[C@]2(C)[C@@]1(O)C(=O)CO [Flumethasone] ?
0.997 (inactive)

Which growth AUC normalised to DMSO control is reported for this compound? O=c1n(CCCN2CCN(c3cccc(Cl)c3)CC2)nc2ccccn12 [Trazodone hydrochloride]
1 (inactive)

Could you share which growth AUC normalised to DMSO control value was measured for CCCCNc1c(C(=O)OCC)c(C)nc2c1cnn2CC [Tracazolate hydrochloride] ?
0.999 (inactive)

Name the reported growth AUC normalised to DMSO control value associated with the compound O=c1[nH]c(=O)n([C@H]2C[C@H](O)[C@@H](CO)O2)cc1I [Idoxuridine]
0.936 (inactive)

# query: growth AUC normalised to DMSO control of entry C#CCN(C)Cc1ccccc1 [Pargyline hydrochloride]
1 (inactive)

Which growth AUC normalised to DMSO control is listed for O=C(O)c1cc(=O)[nH]c(=O)[nH]1 [Orotic acid] ?
1 (inactive)

Look up growth AUC normalised to DMSO control for this compound: Cc1c(OCC(F)(F)F)ccnc1C[S+]([O-])c1nc2ccccc2[nH]1 (centres undefined) [Lansoprazole]
1 (inactive)

Field request: growth AUC normalised to DMSO control | item: CCOC(=O)c1ccc(OC(=O)CCCCCNC(=N)N)cc1 [Gabexate mesilate]
1 (inactive)
